Reference for the values: the OPERA property sets (Mansouri et al. 2018)

I'd appreciate it if you could supply log10(solubility) values for the items below.
Annotation: log10 of solubility, mM basis.

input: State the recorded log10(solubility) for this entry: Oc1c(Cl)ccc(Cl)c1Cl
output: 0.36

input: Quick check: log10(solubility) of ClC1=C(Cl)C(Cl)(Cl)C(Cl)(Cl)C1(Cl)Cl ?
output: -3.54

input: Look at this compound and give its reported log10(solubility). O=P(OC(Cl)CCCl)(OC(Cl)CCCl)OC(Cl)CCCl (centres undefined)
output: -0.63

input: Report log10(solubility) for CCCCNC(=O)n1cc(F)c(=O)[nH]c1=O please.
output: 0.55

input: Could you tell me which log10(solubility) is on file for c1ccc2c(c1)ccc1[nH]c3ccc4ccccc4c3c12 ?
output: -3.63

input: Using the record for Nc1cccc(Cl)c1 , report its log10(solubility).
output: 1.63

input: Fill in: log10(solubility) of COCCCNc1nc(NCCCOC)nc(SC)n1 is ___
output: -0.48

input: Please give the measured log10(solubility) for this compound: CC(=O)OCCN(CCC#N)c1ccc(N=Nc2nc3ccc([N+](=O)[O-])cc3s2)cc1
output: -2.80

input: log10(solubility) lookup needed for CNC(=O)Oc1cccc2c1OC(C)(C)C2 , thanks.
output: 0.16

input: Returns the measured log10(solubility) for the input compound. Input: Cc1cccc(C)c1C
output: -0.20

input: Need log10(solubility) of CC(C)CC=O , thanks.
output: 2.21

input: Reported log10(solubility) for CCNc1nc(N)nc(Cl)n1 : what is it?
output: 0.59

input: Which value of log10(solubility) has been reported for Brc1cc2oc3cc(Br)c(Br)cc3c2cc1Br in the records?
output: -3.84

input: I have this compound here, CC1CCCCN1CCCOC(=O)c1ccc(Cl)c(Cl)c1 (centres undefined) , and I need its recorded log10(solubility).
output: -1.22

input: # log10(solubility) lookup, item CCCCCCCCCCCCCCCCCCCCCC(=O)O
output: -4.33

input: Find the recorded log10(solubility) belonging to Clc1c(Cl)c(Cl)c2c(Cl)c(Cl)c(Cl)c(Cl)c2c1Cl and report it.
output: -6.70

input: Would you mind telling me what log10(solubility) value was observed for CC[n+]1c(-c2ccccc2)c2cc(N)ccc2c2ccc(N)cc21.[Br-] ?
output: 1.71

input: Which log10(solubility) value belongs to C=CCN(CC=C)CC=C ?
output: 1.26

input: # lookup: log10(solubility) of CCc1ccc2cc3ccccc3cc2c1
output: -3.89

input: // log10(solubility) lookup, key: CCNC(=O)Nc1ncc([N+](=O)[O-])s1
output: 0.14

input: Reported log10(solubility), compound c1ccc2c(c1)sc1ccccc12 : ____
output: -2.10

input: Look up log10(solubility) for this compound: C1=CCC=C1
output: 1.43

input: Reported log10(solubility) for O=P(OCCCl)(OCCCl)OCCCl : what is it?
output: 1.39

input: What does the data say about its log10(solubility)? Entry: CCCC(C)C=O (centres undefined)
output: 1.62

input: Could you share which log10(solubility) value was measured for Cc1cccc(C(C)C)c1 ?
output: -0.50

input: Find the recorded log10(solubility) belonging to CCCCCCCCCCCCOC(=O)c1ccc(N)cc1 and report it.
output: -4.80

input: Bench note: what log10(solubility) did CC(=O)c1c(C)c([N+](=O)[O-])c(C(C)(C)C)c([N+](=O)[O-])c1C show?
output: -2.19

input: Report log10(solubility) for CCc1c(C(=O)O)c(=O)cnn1-c1ccc(Cl)cc1 please.
output: 3.40

input: Which log10(solubility) reading was recorded for the compound O=C(O)c1cc[n+]([O-])cc1 ?
output: 1.90
